Assay: qHTS profiling of the MIPE4 collection as inhibitors of Plasmodium falciparum (DD2) proliferation (AID 743345)
Conditions: P. falciparum Dd2 in erythrocytes, SYBR Green DNA, 72 h; at 28.5 µM (top of the series) unless noted
Description: Plasmodium falciparum is a virulent malarial parasite that kills 1-2 million people worldwide each year. […] Because mature erythrocytes lack DNA, only Plasmodium-derived DNA is detected. The SYBR Green viability assay was adapted from a method described previously (Plouffe et al., 2008). […] The following morning, fluorescence intensity at 485(14) nm excitation and 535(25) nm emission wavelengths was measured on an EnVision (Perkin Elmer) plate reader. […]
Below, each entry is listed with its recorded parasite growth remaining, % of DMSO control (lower = more inhibition).
measurement-label: parasite growth remaining, % of DMSO control (lower = more inhibition)

| compound | result |
| --- | --- |
| CC(C)N1[N]C(=C2C=c3cc(O)ccc3=N2)c2c(N)ncnc21 | 13.1% |
| CC(=O)N[C@@H]1[C@H](O[C@@H]2c3ccc(c(Cl)c3)Oc3cc4cc(c3O[C@H]3O[C@H](CO)[C@@H](O)[C@H](O)[C@H]3NC(=O)CCCCCCCC(C)C)Oc3ccc(cc3Cl)C[C@H]3NC(=O)[C@H](N)c5ccc(O)c(c5)Oc5cc(O)cc(c5)[C@H](NC3=O)C(=O)N[C@H]4C(=O)N[C@H]3C(=O)N[C@@H]2C(=O)N[C@@H](C(=O)O)c2cc(O)cc(O[C@H]4O[C@H](CO)[C@@H](O)[C@H](O)[C@H]4O)c2-c2cc3ccc2O)O[C@H](CO)[C@@H](O)[C@@H]1O | 99.1% |
| C[C@H]1O[C@H](O[C@H]2[C@H](O)[C@@H](O)[C@@H](O[C@H]3[C@H](O)[C@@H](O)C(O)O[C@H]3CO)O[C@H]2CO)[C@H](O)[C@@H](O)[C@H]1N[C@H]1C=C(CO)[C@@H](O)[C@H](O)[C@@H]1O (some centres not stated) | 127% |
| Cc1ncc(-c2ccnc(Nc3ccc(S(C)(=O)=O)cc3)n2)n1C(C)C | 19.3% |
| CC(=O)[C@]1(O)Cc2c(O)c3c(c(O)c2[C@@H](O[C@H]2C[C@H](N)[C@@H](O)[C@H](C)O2)C1)C(=O)c1ccccc1C3=O | 46.3% |
| CC(=O)OCC(=O)[C@@]1(O)CC[C@H]2[C@@H]3CCC4=CC(=O)CC[C@]4(C)[C@@H]3C(=O)C[C@@]21C | 93.2% |
| C#C[C@]1(O)CC[C@@H]2[C@@H]3CCC4=CC(=O)CC[C@@H]4[C@H]3CC[C@@]21CC | 79.2% |
| CCn1c(=O)c2c(nc(C=Cc3ccc(OC)c(OC)c3)n2C)n(CC)c1=O | 83.4% |
| C[C@]12C=CC(=O)N[C@@H]1CC[C@H]1[C@H]3CC[C@@H](C(=O)Nc4cc(C(F)(F)F)ccc4C(F)(F)F)[C@@]3(C)CC[C@@H]12 | 9.12% |
| O=C(O)c1ccc(Nc2ncc3c(n2)-c2ccc(Cl)cc2C(c2c(F)cccc2F)=NC3)cc1 | 82.8% |
| C=C1C(=O)O[C@H]2[C@@H]1CCC(C)=CCC[C@@]1(C)O[C@@H]21 | 75.8% |
| COc1cc(C[C@@H](CO)[C@H](CO)Cc2ccc(O)c(OC)c2)ccc1O | 100% |
| O=c1c(O)c(-c2ccc(O)c(O)c2)oc2cc(O)ccc12 | 8.33% |
| COc1ccnc2[nH]cc(C(=O)C(=O)N3CCN(C(=O)c4ccccc4)C[C@@H]3C)c12 | 98% |
| COc1ccc(Nc2cc(-c3cnc(N)nc3)nc(N3CCOCC3)n2)cn1 | 11.1% |
| COc1cc2c(Nc3ccc(Cl)c(Cl)c3F)ncnc2cc1OCC1C[C@@H]2CN(C)C[C@H]2C1 | 7.75% |
| CCNC(=O)Nc1ccc(-c2nc3c(c(N4CCOC[C@H]4C)n2)CCN(C2COC2)C3)cc1 | 87.1% |
| Cc1cc(C(=O)NOCCO)c(Nc2ccc(I)cc2F)n(C)c1=O | 87.7% |
| C=CC(=O)Nc1cc(NC(=O)c2ccc(C)c(NC(=O)c3ccno3)c2)cc(C(F)(F)F)c1 | 52.8% |
| CC(C)[C@H](CO)Nc1nc(Nc2cccc(Cl)c2)c2ncn(C(C)C)c2n1 | 21.1% |
| CS(=O)(=O)N1CCc2c(-c3cnc(N)nc3)nc(N3CCOCC3)nc21 | 9.76% |
| CN(C)CC[C@H](c1ccc(Cl)cc1)c1ccccn1 | 57% |
| CCc1cnn2c(NCc3ccc[n+]([O-])c3)cc(N3CCCC[C@@H]3CCO)nc12 | 14% |
| CC(=CC(=O)Nc1ccccc1C(=O)O)c1ccc2ccccc2c1 | 110% |
| N=c1ccn2c(n1)O[C@H]1[C@@H](O)[C@@H](CO)O[C@H]12 | 119% |
| C=CC1=C(C(=O)O)N2C(=O)[C@@H](NC(=O)C(=NO)c3csc(N)n3)[C@H]2SC1 | 95.1% |
| Cc1ccc(-n2[nH]c(C)c(N=Nc3cccc(-c4cccc(C(=O)O)c4)c3O)c2=O)cc1C | 92.5% |
| C#CCC(Cc1cnc2nc(N)nc(N)c2n1)c1ccc(C(=O)N[C@@H](CCC(=O)O)C(=O)O)cc1 (some centres not stated) | 8.51% |
| CC(=O)O[C@H]1C[C@@H]2CC[C@H]3[C@H]4C[C@H]([N+]5(C)CCCCC5)[C@@H](OC(C)=O)[C@@]4(C)CC[C@@H]3[C@@]2(C)C[C@H]1N1CCCCC1 | 64% |
| NS(=O)(=O)OC[C@@H]1C[C@@H](n2ccc3c(N[C@H]4CCc5ccccc54)ncnc32)C[C@H]1O | 92.9% |
| COc1cccc2c1C(=O)c1c(O)c3c(c(O)c1C2=O)C[C@@](O)(C(C)=O)C[C@H]3O[C@H]1C[C@H](N)[C@H](O)[C@H](C)O1 | 5.82% |
| c1cc(N[C@@H]2CCNC2)nc(-c2cnc3ccc(-c4cn[nH]c4)cn23)c1 | 8.57% |
